Data credit: paper PMC9076199

Sequence of the target: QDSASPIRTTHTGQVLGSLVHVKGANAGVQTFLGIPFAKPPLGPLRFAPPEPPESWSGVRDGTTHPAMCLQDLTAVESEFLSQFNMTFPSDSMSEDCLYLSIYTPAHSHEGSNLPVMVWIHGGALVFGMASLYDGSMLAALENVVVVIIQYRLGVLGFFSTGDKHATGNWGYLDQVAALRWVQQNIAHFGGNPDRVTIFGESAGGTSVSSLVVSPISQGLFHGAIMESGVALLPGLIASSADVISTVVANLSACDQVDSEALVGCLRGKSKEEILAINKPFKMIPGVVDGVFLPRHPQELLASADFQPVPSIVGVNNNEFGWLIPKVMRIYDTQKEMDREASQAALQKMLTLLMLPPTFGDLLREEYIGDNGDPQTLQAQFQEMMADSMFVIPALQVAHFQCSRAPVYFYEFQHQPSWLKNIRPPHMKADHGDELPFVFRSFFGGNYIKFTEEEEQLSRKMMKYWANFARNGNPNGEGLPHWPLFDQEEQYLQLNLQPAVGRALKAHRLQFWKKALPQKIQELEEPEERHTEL
pIC50: −log10 of the molar value.
test-readout: pIC50

For orientation, consider the following solved cases.
| compound | value |
| --- | --- |
| Cc1[nH]c2ccccc2c1C(c1ccccc1Cl)c1c(C)[nH]c2ccccc12 [4h] | 6.24 |
| Cc1[nH]c2ccccc2c1C(c1ccccc1[N+](=O)[O-])c1c(C)[nH]c2ccccc12 [4n] | 6.72 |
| COc1cccc(C(c2c(C)[nH]c3ccccc23)c2c(C)[nH]c3ccccc23)c1 [4f] | 5.89 |
| Cc1[nH]c2ccccc2c1C(c1ccc(Br)cc1)c1c(C)[nH]c2ccccc12 [4m] | 5.92 |

I. Cc1cccc(C(c2c(C)[nH]c3ccccc23)c2c(C)[nH]c3ccccc23)c1 [4c]
II. Cc1[nH]c2ccccc2c1C(c1ccc(Cl)cc1)c1c(C)[nH]c2ccccc12 [4j]
Would you mind telling me which has the lower recorded pIC50 between I and II ? Returns: label corresponding to the selected item. II
(II: 6.08, I: 6.47)

a. Cc1[nH]c2ccccc2c1C(c1ccc([N+](=O)[O-])cc1)c1c(C)[nH]c2ccccc12 [4p]
b. Cc1ccc(C(c2c(C)[nH]c3ccccc23)c2c(C)[nH]c3ccccc23)cc1 [4d]
c. Cc1ccccc1C(c1c(C)[nH]c2ccccc12)c1c(C)[nH]c2ccccc12 [4b]
Arrange the 3 compounds by rising pIC50, starting with the smallest. Please respond with the labels ordered as the question requires. a, c, b
(a: 5.91, c: 6.25, b: 6.55)

----------
Target chain: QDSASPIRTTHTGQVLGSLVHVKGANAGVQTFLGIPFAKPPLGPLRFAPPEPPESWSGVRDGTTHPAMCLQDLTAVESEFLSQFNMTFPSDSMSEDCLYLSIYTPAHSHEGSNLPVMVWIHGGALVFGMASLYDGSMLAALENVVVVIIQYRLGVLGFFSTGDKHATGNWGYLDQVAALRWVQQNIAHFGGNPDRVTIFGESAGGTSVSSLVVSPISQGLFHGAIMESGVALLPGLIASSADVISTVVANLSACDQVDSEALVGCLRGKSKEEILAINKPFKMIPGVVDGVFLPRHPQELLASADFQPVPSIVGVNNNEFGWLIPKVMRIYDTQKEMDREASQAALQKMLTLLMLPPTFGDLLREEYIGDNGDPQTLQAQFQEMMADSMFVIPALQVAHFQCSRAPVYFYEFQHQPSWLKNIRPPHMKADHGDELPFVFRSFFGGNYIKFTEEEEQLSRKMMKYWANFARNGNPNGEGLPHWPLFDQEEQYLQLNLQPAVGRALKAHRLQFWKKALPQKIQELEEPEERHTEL
test-readout: IC50 (nM)

| molecular-string | test-readout | value |
| --- | --- | --- |
| Cc1[nH]c2ccccc2c1C(c1cccc(Cl)c1)c1c(C)[nH]c2ccccc12 | IC50 | 1230 |
| Cc1[nH]c2ccccc2c1C(c1cccc(Br)c1)c1c(C)[nH]c2ccccc12 | IC50 | 3170 |
| Cc1[nH]c2ccccc2c1C(c1cccc([N+](=O)[O-])c1)c1c(C)[nH]c2ccccc12 | IC50 | 350 |

I. Cc1[nH]c2ccccc2c1C(c1ccccc1Br)c1c(C)[nH]c2ccccc12
II. COc1ccccc1C(c1c(C)[nH]c2ccccc12)c1c(C)[nH]c2ccccc12
Would you mind telling me which has the lower recorded IC50 between I and II ? Returns: label corresponding to the selected item. II
